Reference source for all entries: patent US20250304677A1

- SYSTEM: T1, mouse folate receptor alpha (mFRα), recombinant protein (mouse, UniProt P35846 25-232)
- T1 construct: Bought recombinant proteins (e.g. biotinylated, Acro Biosystems FO1-M82E9); also called mFOLR1; Ms FOLR1
- T1 sequence (P35846 25-232 limits assumed): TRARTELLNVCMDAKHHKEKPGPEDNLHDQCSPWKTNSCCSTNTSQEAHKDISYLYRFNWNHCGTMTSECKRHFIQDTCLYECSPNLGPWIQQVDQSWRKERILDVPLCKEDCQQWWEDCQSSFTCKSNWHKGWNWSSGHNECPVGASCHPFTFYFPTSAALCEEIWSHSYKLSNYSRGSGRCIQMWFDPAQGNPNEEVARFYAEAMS
- EXPERIMENTAL_PROTOCOL: BLI, periplasmic extract, FRα on AR2G biosensors
Assign true (1) to entries whose koff meets or exceeds 0.009 s⁻¹; assign false (0) to the rest.

{"columns": ["BINDER", "LABEL_CLASS"],
 "data": [
  ["VHH 3HFO26 (family 1) (VHH) VHH: QVQLQESGGGLVQPGGSLRITCVASGFPFSTYYMSWVRQAPGKGLEWVSGINSNGGVIDYADSVKGRFTISRDNAKNTLYLQLNSLKPEDTALYFCARGRAFVATMPSSLRGQGTQVTVSS", "true (1)"],
  ["VHH 3MFR60 (family 10) (VHH) VHH: QVQLQESGGGLVQAGGSLRVSCAASGIIFSMNGMGWFRQAPGKQRELVASITSGGSTKYADSVKGRFTISRDNAKNTVYLQMNSLKPEDTAVYYCNIQFGSRWSTYWGQGTQVTVSS", "false (0)"],
  ["VHH 2HFO19 (family 1) (VHH, also called Nb19) VHH: QVQLQESGGGLVQPGGSLRVSCAASGFPFSTVYMSWVRQAPGKGLEWVSGINNDGGVIDYADSVKGRFTISRDNAKNTLYLQLNSLKPEDTALYFCARGRSFVATLSSSLRGQGTQVTVSS", "false (0)"],
  ["VHH 2MFR7 (family 1) (VHH, also called 2MFRO7) VHH: QVQLQESGGGLVQPGGSLRLSCAASGFPFSTYYMSWVRQAPGKGLEWVSGINSNGGVIDYADSVKGRFTISRDNAKNTLYLQLNSLKPEDTALYFCARGRAFVATMPSSLRGQGTQVTVSS", "true (1)"],
  ["VHH 3HFO28 (family 7) (VHH) VHH: QVQLQESGGGLVQPGGSLRLSCAASGSTLDRYEIGWFRQAPGKGRERVSCISTTSSTYEDSVKGRFTISRDNAKNTVYLQMNSLKPEDTAVYYCATVRVAWSTCFPTGDSWGKGTQVTVSS", "false (0)"]
]}
